# METHOD_DESCRIPTION: Cmax in mouse at 25 mg/kg, po after 7 hrs
# Type: ADME, organism-based
# Design: dose 25 mg/kg, route oral
# CONDITION: in vivo
OBSERVABLE: Cmax (µM)

- CC[C@@H](Nc1c(Nc2cccc(C(=O)N(C)C)c2O)c(=O)c1=O)c1cc(C(C)C)co1: 4.6

====

# METHOD_DESCRIPTION: AUC in rat at 10 mg/kg, po after 6 hrs
# Assay type: ADME, organism-based
# Set-up: time < 6 hr, dose 10 mg/kg, route oral
# CONDITION: plasma
Each entry below lists one item and its recorded AUC at 6 h value.
OBSERVABLE: AUC at 6 h (µM·h)

- CC[C@@H](Nc1c(Nc2cccc(C(=O)N(C)C)c2O)c(=O)c1=O)c1cc(C(C)C)co1: 5.4
- CCc1coc([C@@H](CC)Nc2c(Nc3cccc(C(=O)N(C)C)c3O)c(=O)c2=O)c1: 17.4
- CC[C@@H](Nc1c(Nc2cccc(C(=O)N(C)C)c2O)c(=O)c1=O)c1cc(C)co1: 32.6

====

# System: Neutrophil
# METHOD_DESCRIPTION: Inhibition of GROalpha-induced migration of human neutrophils by chemotaxis assay
# Type: functional, cell-based
pIC50: −log10 of the molar value.
OBSERVABLE: pIC50

- CC[C@@H](Nc1c(Nc2cccc(C(=O)N(C)C)c2O)c(=O)c1=O)c1cc(C(C)C)co1: 9.30

====

# TESTED_SYSTEM: UniProt P25025
# METHOD_DESCRIPTION: Displacement of [125I]IL8 from human CXCR2 expressed in CHO cells by SPA
pIC50: −log10 of the molar value.
OBSERVABLE: pIC50

* CC[C@@H](Nc1c(Nc2cccc(C(=O)N(C)C)c2O)c(=O)c1=O)c1cc(C(C)C)co1 | 8.89

====

# METHOD_DESCRIPTION: Cmax in rat at 10 mg/kg, po after 6 hrs
# Assay type: ADME, organism-based
# Design: dose 10 mg/kg, route oral
# CONDITION: in vivo
OBSERVABLE: Cmax (µM)

* CC[C@@H](Nc1c(Nc2cccc(C(=O)N(C)C)c2O)c(=O)c1=O)c1cc(C(C)C)co1 | 3.8

====

# TESTED_SYSTEM: C-X-C chemokine receptor type 2 (Homo sapiens, UniProt P25025)
# Sequence (P25025 whole entry): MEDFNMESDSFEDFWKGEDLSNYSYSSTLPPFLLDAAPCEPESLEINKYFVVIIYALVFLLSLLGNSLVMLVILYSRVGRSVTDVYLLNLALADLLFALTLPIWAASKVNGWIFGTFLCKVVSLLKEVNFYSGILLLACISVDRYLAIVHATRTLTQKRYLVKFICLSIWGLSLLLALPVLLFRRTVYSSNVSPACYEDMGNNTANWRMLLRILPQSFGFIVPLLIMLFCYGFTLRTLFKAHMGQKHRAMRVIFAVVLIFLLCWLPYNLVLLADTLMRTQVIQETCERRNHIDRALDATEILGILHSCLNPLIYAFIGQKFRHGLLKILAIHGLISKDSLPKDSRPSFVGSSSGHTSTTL
Each entry below lists one item and its recorded Ki value.
OBSERVABLE: Ki (nM)

- CC[C@@H](Nc1c(Nc2cccc(C(=O)N(C)C)c2O)c(=O)c1=O)c1cc(C(C)(C)C)co1: 4
- CC[C@@H](Nc1c(Nc2cccc(C(=O)N(C)C)c2O)c(=O)c1=O)c1cc(C2CCCCC2)co1: 4
- CC[C@@H](Nc1c(Nc2cccc(C(=O)N(C)C)c2O)c(=O)c1=O)c1cc(CCCCN2CCOCC2)co1: 9
- CCc1coc([C@@H](CC)Nc2c(Nc3cccc(C(=O)N(C)C)c3O)c(=O)c2=O)c1: 1
- CC[C@@H](Nc1c(Nc2cccc(C(=O)N(C)C)c2O)c(=O)c1=O)c1cc(C2CCCC2)co1: 3
- CCc1ccoc1[C@@H](CC)Nc1c(Nc2cccc(C(=O)N(C)C)c2O)c(=O)c1=O: 25
- CC(C)c1coc([C@H](Nc2c(Nc3cccc(C(=O)N(C)C)c3O)c(=O)c2=O)C(C)(C)C)c1: 4
